Origin of measurements: patent US8673969B2

Quick reference: GI50 of the listed items.
System: Zr-75-1
protocol notes: SRB assay, breast cancer cell line Zr-75-1
Type: cell-based
measurement parameters: Homo sapiens, ZR-75-1, 48 h, read-out: In vitro anticancer activity GI50, Breast Zr-75-1
Only the number, expressed in µM, is required.

Worked cases, GI50 given:
molecule	units symbol	GI50
COc1ccc(/C=C(/C(=O)N[C@@H]2c3cc4c(cc3[C@@H](c3cc(OC)c(OC)c(OC)c3)[C@H]3C(=O)OC[C@@H]32)OCO4)c2cc(OC)c(OC)c(OC)c2)cc1	µM	2.9
COc1cc(/C(=C\c2ccc(O)cc2)C(=O)N[C@@H]2c3cc4c(cc3[C@@H](c3cc(OC)c(OC)c(OC)c3)[C@H]3C(=O)OC[C@@H]32)OCO4)cc(OC)c1OC	µM	2.7
COc1cc(/C=C(/C(=O)N[C@@H]2c3cc4c(cc3[C@@H](c3cc(OC)c(OC)c(OC)c3)[C@H]3C(=O)OC[C@@H]32)OCO4)c2cc(OC)c(OC)c(OC)c2)ccc1F	µM	2.2
COc1ccc(F)c(/C=C(/C(=O)N[C@@H]2c3cc4c(cc3[C@@H](c3cc(OC)c(OC)c(OC)c3)[C@H]3C(=O)OC[C@@H]32)OCO4)c2cc(OC)c(OC)c(OC)c2)c1	µM	2.7

Query: GI50; subject: COc1ccccc1/C(=C\c1ccccc1[N+](=O)[O-])C(=O)N[C@@H]1c2cc3c(cc2[C@@H](c2cc(OC)c(OC)c(OC)c2)[C@H]2C(=O)OC[C@@H]21)OCO3
2.2
